- Test system: U-937
- ASSAY NOTES: Antiinflammatory activity in human U937 cells assessed as inhibition of PMA/LPS-stimulated TNFalpha production after 24 hrs by ELISA
- Type: functional, cell-based
- STUDY CONDITIONS: U-937, 24 h
pIC50: −log10 of the molar value.
ATTRIBUTE MEASURED: pIC50

COC(=O)C1=C(OC)C(=O)OC1C1=C(Cl)c2c(ccc(C)c2C)OC1 (stereo not given) ... 6.85

[I] CCOC(=O)C1=C(OCC)C(=O)OC1C1=C(Cl)c2cc(Br)ccc2OC1 (stereo not given)
[II] CCOC(=O)C1=C(OCC)C(=O)OC1c1c(Cl)c2cc(Cl)ccc2oc1=O (stereo not given)
[III] COC(=O)C1=C(OC)C(=O)OC1c1c(Cl)c2cc(Cl)ccc2oc1=O (stereo not given)
[IV] COC(=O)C1=C(OC)C(=O)OC1c1c(Cl)c2cc(Br)ccc2oc1=O (stereo not given)
Query: Put the entries in order of pIC50, starting with the largest number. Please express your ranking as an ordered list of the labels.
Reply: IV, II, I, III
(IV: 7.15, II: 6.37, I: 5.49, III: 5.20)
